Target Of Assay: T1, Fpg (formamidopyrimidine-DNA glycosylase) (Escherichia coli, UniProt P05523 2-269)
T1 sequence: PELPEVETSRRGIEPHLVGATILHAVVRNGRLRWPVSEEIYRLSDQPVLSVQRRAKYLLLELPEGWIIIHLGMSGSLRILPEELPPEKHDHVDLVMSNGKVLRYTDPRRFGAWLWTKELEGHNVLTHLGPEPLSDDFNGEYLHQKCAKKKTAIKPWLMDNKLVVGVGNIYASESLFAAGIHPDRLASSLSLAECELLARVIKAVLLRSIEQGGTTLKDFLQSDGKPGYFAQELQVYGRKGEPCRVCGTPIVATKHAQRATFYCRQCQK
Assay Notes: MST; MST: 50 mM Tris-HCl pH 7.5, 50 mM KCl, 1 mM EDTA, 1 mM DTT, 7% glycerol, 25 C, 10 min, 0.5 uM DNA; authors call Kd values estimates only
Experimental Parameters: protein: recombinant; tags: none (native form without tags); label: 5'-FAM, 3'-BHQ1; G-quadruplex
Measurement Kind: Kd (nM)

> print(dat)
                                     binder  unit.symbol  recorded.value
1  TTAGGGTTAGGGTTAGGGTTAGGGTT (structured_DNA, G17 = 8-oxoguanine) [Q4-oxoG]           nM            1200
